test system: Staphylococcus aureus; test: Antibacterial activity against Staphylococcus aureus Newman; type: functional
measuredProperty: MIC

Write down MIC measured for item C#CCON=C(c1ccc(Cl)cc1Cl)c1cc2c(cc1C(C)C)CC[C@H]1[C@](C)(C(=O)O)CCC[C@]21C
1.56 to 3.13 µg/mL

Write down MIC measured for item CC(C)c1cc2c(cc1C(=NO)c1ccccc1C(F)(F)F)[C@@]1(C)CCC[C@@](C)(C(=O)O)[C@@H]1CC2
1.56 to 3.13 µg/mL

Write down MIC measured for item C=CCON=C(c1ccc(C(F)(F)F)cc1)c1cc2c(cc1C(C)C)CC[C@H]1[C@](C)(C(=O)O)CCC[C@]21C
> 50 µg/mL

Entry source: ChEMBL document CHEMBL3864157
